Please respond with reported protein stability index for every item in the list.
# experiment.summary: protein stability index of a GFP-peptide fusion (GPS, HEK-293T) (PSI 1-6); higher = more stable;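 note: 24-mer peptide tiles fused after GFP, lentivirally expressed, FACS-sorted into six equal bins by GFP/DsRed ratio, decoded by Illumina sequencing, PSI is the read-weighted mean bin number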
# run.conditions: treatment: DMSO; c terminus: a fixed tail appended
Give bare numbers.

Recorded protein stability index, per entry:
primary.sequence: TVTVISPLELMRTKLQAQHVSYRE [SLC25A39]
metric.name: protein stability index
measured: 2.65

primary.sequence: IIPQVPLFNILAKFNGITEKEYKT [USP39]
metric.name: protein stability index
measured: 2.41

primary.sequence: IHKGEKPYQCSQCSKSYSRRSFLI [ZSCAN9]
metric.name: protein stability index
measured: 2.46

primary.sequence: DLDSRTDSDIPEIPPSSDRTPEIL [CDS1]
metric.name: protein stability index
measured: 5.42

// each listed sequence needs a value for protein stability index
1. QFALTNGDPLNCHSYLSGYISLLL [NR2F2]
2. YGYVYFRQVRDKTLKRGYFQKSLV [DENND6A]
3. QLTEKLARVNENLARKIASRNEFD [SSNA1]

1: 2.57; 2: 2.56; 3: 2.85

// each listed sequence needs a value for protein stability index
1. EDVKCQEDQKLQVLLTQIESKKHQ [TRIM15]
2. ANKYLVEDVLLLNFEEMRALLDSL [KLHL14]
3. EMTPEKFSVLMEKLCKKGLAATTS [FANCE]
4. SRRIPSTDANLPSGGKGFKLRRQP [RAB22A]
5. RGKLKKTEEELRRIQTQKEQAKEN [ZC2HC1C]

1: 5.12; 2: 2.34; 3: 2.75; 4: 4.09; 5: 5.31

Give its protein stability index value. Item: IAGNKCDLIDVREVMERDAKDYAD [RAB22A] 4.98

* * *

# experiment.summary: protein stability index of a GFP-peptide fusion (GPS, HEK-293T) (PSI 1-6); higher = more stable
# run.conditions: treatment: DMSO; c terminus: a fixed tail appended
Please respond with reported protein stability index for every item in the list.
Answers are plain numbers.

Recorded protein stability index, per entry:
primary.sequence: VLGFLIENFKGLAIPYLEHIIHVW [VPS39]
measured: 2.36
--
primary.sequence: HLEIDDMYTPAYGDFDFDEVKFPN [MYORG]
measured: 4.49
--
primary.sequence: VNVGTTALWKHLKSMHREELEKSG [ZBED2]
measured: 3.65
--
primary.sequence: EYQLFEELGKGAFSVVRRCMKIPT [CAMK2D]
measured: 2.07
--
primary.sequence: YVQWSLPFIVFGATGLTSGLLSLL [SLC22A15]
measured: 3.27
--
primary.sequence: RCYYYEDTISTIKSVAWEGGACPA [NCF4]
measured: 2.31
--
primary.sequence: LLSSSEEECKDRERPMYGRDSAYQ [EMD]
measured: 4.48
--
primary.sequence: DEPGKGGFWRIDPQYAERLLSGAF [FOXJ1]
measured: 2.6
--
primary.sequence: QAVSAPGILNRPPAPTATVPAPQP [ZNF207]
measured: 4.76
--
primary.sequence: TGNPKSEEPEVPDQEGLQRITGLS [SPNS1]
measured: 5.35

// each listed sequence needs a value for protein stability index
1. PDLNTLLWEAEDRQNVPRKVPNHY [CPXM2]
2. AVVALTQDQPSEAATGGATLAQTI [HDAC6]
3. TTFRGHTGGVTALCWDPVQRVLFS [WDFY2]

3.87
4.27
2.25
